Tested Target: Neuropeptide S receptor (Mus musculus, UniProt Q8BZP8)
Experiment: Agonist activity at mouse recombinant NPS receptor expressed in HEK293 cells assessed as intracellular calcium mobilization
Non-standard residues stand in square brackets, D forms with d. Residues, ends and D or L forms follow the SMILES beside them. Phe(4-Me) = Cc1ccc(C[C@H](N)C(=O)O)cc1; Cha = N[C@@H](CC1CCCCC1)C(=O)O
Value Type: EC50
Don't forget the unit after the number, please.

### Prompt Give the value of EC50 reported for the following: CSCC[C@H](NC(=O)CNC(=O)[C@@H](NC(=O)CNC(=O)[C@@H](NC(=O)CNC(=O)[C@H](CC(N)=O)NC(=O)[C@H](CCCNC(=N)N)NC(=O)[C@H](Cc1ccc(C)cc1)NC(=O)[C@@H](N)CO)C(C)C)[C@@H](C)O)C(=O)N[C@@H](CCCCN)C(=O)N[C@@H](CCCCN)C(=O)N[C@H](C(=O)N[C@@H](CO)C(=O)N[C@@H](Cc1ccccc1)C(=O)N[C@@H](CCC(N)=O)C(=O)N[C@@H](CCCNC(=N)N)C(=O)N[C@@H](C)C(=O)N[C@@H](CCCCN)C(=O)N[C@@H](CO)C(=O)O)[C@@H](C)O (H-S[Phe(4-Me)]RNGVGTGMKKTSFQRAKS-OH)
### Response 0.676 nM

### Prompt Give EC50 for the following molecule: CSCC[C@H](NC(=O)CNC(=O)[C@@H](NC(=O)CNC(=O)[C@@H](NC(=O)CNC(=O)[C@H](CC(N)=O)NC(=O)[C@H](CCCNC(=N)N)NC(=O)[C@H](CC1CCCCC1)NC(=O)[C@@H](N)CO)C(C)C)[C@@H](C)O)C(=O)N[C@@H](CCCCN)C(=O)N[C@@H](CCCCN)C(=O)N[C@H](C(=O)N[C@@H](CO)C(=O)N[C@@H](Cc1ccccc1)C(=O)N[C@@H](CCC(N)=O)C(=O)N[C@@H](CCCNC(=N)N)C(=O)N[C@@H](C)C(=O)N[C@@H](CCCCN)C(=O)N[C@@H](CO)C(=O)O)[C@@H](C)O (H-S[Cha]RNGVGTGMKKTSFQRAKS-OH)
### Response 1.35 nM

====

Tested Target: Neuropeptide S receptor (Mus musculus)
Experiment: Agonist activity at mouse recombinant NPS receptor expressed in HEK293 cells assessed as intracellular calcium mobilization relative to baseline
Assay type: functional, cell-based
Threshold rule: Emax greater than or equal to 300% is 1; below that, 0.

### Prompt Is the recorded value of Emax equal to or greater than 300% for this substance? `H-SWRNGVGTGMKKTSFQRAKS-OH`
### Response 1

### Prompt Confirm if Emax reported for the substance `H-SHRNGVGTGMKKTSFQRAKS-OH` is 300% or above.
### Response 0

### Prompt Dear colleague, could you confirm whether `H-SLRNGVGTGMKKTSFQRAKS-OH` has Emax at or above 300%?
### Response 0

### Prompt Hi team, for `H-SYRNGVGTGMKKTSFQRAKS-OH` , is the recorded Emax at or above 300%?
### Response 1

### Prompt Decide: is the reported value of Emax for H-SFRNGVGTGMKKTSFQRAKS-OH [NEUROPEPTIDE S] equal to or greater than 300%?
### Response 0

====

I'd be grateful if you could share measured pEC50 for these entries.
Tested Target: Neuropeptide S receptor (Mus musculus)
Sequence (Q8BZP8 whole entry): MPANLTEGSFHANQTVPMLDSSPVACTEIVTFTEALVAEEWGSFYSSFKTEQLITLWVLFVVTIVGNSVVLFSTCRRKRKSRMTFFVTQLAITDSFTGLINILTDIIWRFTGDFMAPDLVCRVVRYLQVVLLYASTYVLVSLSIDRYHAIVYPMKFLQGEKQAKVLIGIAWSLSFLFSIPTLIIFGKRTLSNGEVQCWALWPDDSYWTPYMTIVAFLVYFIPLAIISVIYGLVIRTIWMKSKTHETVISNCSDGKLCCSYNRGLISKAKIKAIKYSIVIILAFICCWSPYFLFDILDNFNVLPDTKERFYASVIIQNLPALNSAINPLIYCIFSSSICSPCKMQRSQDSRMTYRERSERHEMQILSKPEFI
Experiment: Agonist activity at mouse recombinant NPS receptor expressed in HEK293 cells assessed as intracellular calcium mobilization
Type: functional, cell-based
Units for pEC50: none; it is -log10 of a concentration expressed in mol/L.

### Prompt Look up pEC50 of `H-SHRNGVGTGMKKTSFQRAKS-OH` and report it.
### Response 6.88

### Prompt Please supply the value of reported pEC50 for the item `H-SLRNGVGTGMKKTSFQRAKS-OH`
### Response 8.08

### Prompt Answer with the recorded pEC50 of H-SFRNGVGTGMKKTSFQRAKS-OH [NEUROPEPTIDE S] only.
### Response 8.96

### Prompt Give reported pEC50 value for `H-SYRNGVGTGMKKTSFQRAKS-OH`
### Response 8.63

### Prompt Fill in pEC50 for record `H-SWRNGVGTGMKKTSFQRAKS-OH`
### Response 8.65

====

Tested Target: Neuropeptide S receptor (Mus musculus) (UniProt Q8BZP8)
Experiment: Agonist activity at mouse recombinant NPS receptor expressed in HEK293 cells assessed as intracellular calcium mobilization relative to baseline
Format: functional, cell-based
Non-standard residues stand in square brackets, D forms with d. Residues, ends and D or L forms follow the SMILES beside them. Cha = N[C@@H](CC1CCCCC1)C(=O)O
Value Type: Emax
Answer with the number, then the unit.

### Prompt Item CSCC[C@H](NC(=O)CNC(=O)[C@@H](NC(=O)CNC(=O)[C@@H](NC(=O)CNC(=O)[C@H](CC(N)=O)NC(=O)[C@H](CCCNC(=N)N)NC(=O)[C@H](CC1CCCCC1)NC(=O)[C@@H](N)CO)C(C)C)[C@@H](C)O)C(=O)N[C@@H](CCCCN)C(=O)N[C@@H](CCCCN)C(=O)N[C@H](C(=O)N[C@@H](CO)C(=O)N[C@@H](Cc1ccccc1)C(=O)N[C@@H](CCC(N)=O)C(=O)N[C@@H](CCCNC(=N)N)C(=O)N[C@@H](C)C(=O)N[C@@H](CCCCN)C(=O)N[C@@H](CO)C(=O)O)[C@@H](C)O (H-S[Cha]RNGVGTGMKKTSFQRAKS-OH) : provide Emax
### Response 221%

====

Tested Target: Neuropeptide S receptor (Mus musculus)
Sequence (whole entry): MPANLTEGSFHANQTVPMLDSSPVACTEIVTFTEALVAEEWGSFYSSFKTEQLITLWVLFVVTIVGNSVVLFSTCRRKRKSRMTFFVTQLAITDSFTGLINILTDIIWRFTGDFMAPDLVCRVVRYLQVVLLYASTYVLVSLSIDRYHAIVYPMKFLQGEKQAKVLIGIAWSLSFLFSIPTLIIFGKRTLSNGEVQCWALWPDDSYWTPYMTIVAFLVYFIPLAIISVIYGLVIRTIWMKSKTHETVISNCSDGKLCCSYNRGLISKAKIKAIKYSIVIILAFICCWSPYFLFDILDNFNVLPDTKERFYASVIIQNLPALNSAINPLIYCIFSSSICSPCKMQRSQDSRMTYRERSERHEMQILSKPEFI
Experiment: Agonist activity at mouse recombinant NPS receptor expressed in HEK293 cells assessed as intracellular calcium mobilization at 10 umol
Type: functional, cell-based
Task for the reader: assign each of the following substances its reported Activity.
Give the number; % is assumed, so skip it.

### Prompt Fill in reported Activity for this entry: `H-SKRNGVGTGMKKTSFQRAKS-OH`
### Response 103

### Prompt Let me know recorded Activity for `H-STRNGVGTGMKKTSFQRAKS-OH` , thanks.
### Response 114

### Prompt Consider the substance `H-SERNGVGTGMKKTSFQRAKS-OH` and give its recorded Activity.
### Response 170

### Prompt Note Activity for the substance shown: `H-SDRNGVGTGMKKTSFQRAKS-OH`
### Response 39

### Prompt Tell me Activity reported for `H-SNRNGVGTGMKKTSFQRAKS-OH`
### Response 49

### Prompt Check the records and state Activity for `H-SQRNGVGTGMKKTSFQRAKS-OH`
### Response 54

====

Could you please report measured Emax for the items listed next?
Tested Target: Neuropeptide S receptor (Mus musculus)
Experiment: Agonist activity at mouse recombinant NPS receptor expressed in HEK293 cells assessed as intracellular calcium mobilization relative to baseline
Format: functional, cell-based
Non-standard residues stand in square brackets, D forms with d. Residues, ends and D or L forms follow the SMILES beside them. Phe(4-F) = N[C@@H](Cc1ccc(F)cc1)C(=O)O; Phe(4-I) = N[C@@H](Cc1ccc(I)cc1)C(=O)O; Tic = O=C(O)[C@@H]1Cc2ccccc2CN1; Nphe = O=C(O)CNCc1ccccc1
Reply with just the number (in %).

### Prompt Quick one: give measured Emax for CSCC[C@H](NC(=O)CNC(=O)[C@@H](NC(=O)CNC(=O)[C@@H](NC(=O)CNC(=O)[C@H](CC(N)=O)NC(=O)[C@H](CCCNC(=N)N)NC(=O)[C@@H]1Cc2ccccc2CN1C(=O)[C@@H](N)CO)C(C)C)[C@@H](C)O)C(=O)N[C@@H](CCCCN)C(=O)N[C@@H](CCCCN)C(=O)N[C@H](C(=O)N[C@@H](CO)C(=O)N[C@@H](Cc1ccccc1)C(=O)N[C@@H](CCC(N)=O)C(=O)N[C@@H](CCCNC(=N)N)C(=O)N[C@@H](C)C(=O)N[C@@H](CCCCN)C(=O)N[C@@H](CO)C(=O)O)[C@@H](C)O (H-S[Tic]RNGVGTGMKKTSFQRAKS-OH)
### Response 244

### Prompt Provide Emax value for the following molecule: CSCC[C@H](NC(=O)CNC(=O)[C@@H](NC(=O)CNC(=O)[C@@H](NC(=O)CNC(=O)[C@H](CC(N)=O)NC(=O)[C@H](CCCNC(=N)N)NC(=O)[C@H](Cc1ccc(I)cc1)NC(=O)[C@@H](N)CO)C(C)C)[C@@H](C)O)C(=O)N[C@@H](CCCCN)C(=O)N[C@@H](CCCCN)C(=O)N[C@H](C(=O)N[C@@H](CO)C(=O)N[C@@H](Cc1ccccc1)C(=O)N[C@@H](CCC(N)=O)C(=O)N[C@@H](CCCNC(=N)N)C(=O)N[C@@H](C)C(=O)N[C@@H](CCCCN)C(=O)N[C@@H](CO)C(=O)O)[C@@H](C)O (H-S[Phe(4-I)]RNGVGTGMKKTSFQRAKS-OH)
### Response 243

### Prompt Give Emax for the following molecule: CSCC[C@H](NC(=O)CNC(=O)[C@@H](NC(=O)CNC(=O)[C@@H](NC(=O)CNC(=O)[C@H](CC(N)=O)NC(=O)[C@H](CCCNC(=N)N)NC(=O)CN(Cc1ccccc1)C(=O)[C@@H](N)CO)C(C)C)[C@@H](C)O)C(=O)N[C@@H](CCCCN)C(=O)N[C@@H](CCCCN)C(=O)N[C@H](C(=O)N[C@@H](CO)C(=O)N[C@@H](Cc1ccccc1)C(=O)N[C@@H](CCC(N)=O)C(=O)N[C@@H](CCCNC(=N)N)C(=O)N[C@@H](C)C(=O)N[C@@H](CCCCN)C(=O)N[C@@H](CO)C(=O)O)[C@@H](C)O (H-S[Nphe]RNGVGTGMKKTSFQRAKS-OH)
### Response 246

### Prompt Return Emax (reported value) for this molecule: CSCC[C@H](NC(=O)CNC(=O)[C@@H](NC(=O)CNC(=O)[C@@H](NC(=O)CNC(=O)[C@H](CC(N)=O)NC(=O)[C@H](CCCNC(=N)N)NC(=O)[C@H](Cc1ccc(F)cc1)NC(=O)[C@@H](N)CO)C(C)C)[C@@H](C)O)C(=O)N[C@@H](CCCCN)C(=O)N[C@@H](CCCCN)C(=O)N[C@H](C(=O)N[C@@H](CO)C(=O)N[C@@H](Cc1ccccc1)C(=O)N[C@@H](CCC(N)=O)C(=O)N[C@@H](CCCNC(=N)N)C(=O)N[C@@H](C)C(=O)N[C@@H](CCCCN)C(=O)N[C@@H](CO)C(=O)O)[C@@H](C)O (H-S[Phe(4-F)]RNGVGTGMKKTSFQRAKS-OH)
### Response 291
